tested on: p53; assay: Western blot of HCT116 cells, p53 level; assay type: cell-based, human; conditions: Western blot (FIG. 2, FIG. 3)
MEASUREMENT_NAME: p53 level increase

{"columns": ["GIVEN_SMILES", "MEASUREMENT_NAME", "RESULT_VALUE"],
 "data": [
  ["COc1cc(C(=O)NCCOCCNC(=O)C[C@@H]2N=C(c3ccc(Cl)cc3)c3c(sc(C)c3C)-n3c(C)nnc32)ccc1NC(=O)[C@H]1N[C@H](CC(C)(C)C)[C@@](C#N)(c2ccc(Cl)cc2F)[C@@H]1c1cccc(Cl)c1F", "p53 level increase", "no p53 level increase"],
  ["COc1cc(C(=O)NCCOCCOCCOCCOCCNC(=O)C[C@@H]2N=C(c3ccc(Cl)cc3)c3c(sc(C)c3C)-n3c(C)nnc32)ccc1NC(=O)[C@H]1N[C@H](CC(C)(C)C)[C@@](C#N)(c2ccc(Cl)cc2F)[C@@H]1c1cccc(Cl)c1F", "p53 level increase", "no p53 level increase"]
]}

Value source: patent US12577255B2
